- Assayed Target: Von Hippel-Lindau disease tumor suppressor/Elongin B/Elongin C (Homo sapiens)
- Sequence (P40337 whole entry, looked up): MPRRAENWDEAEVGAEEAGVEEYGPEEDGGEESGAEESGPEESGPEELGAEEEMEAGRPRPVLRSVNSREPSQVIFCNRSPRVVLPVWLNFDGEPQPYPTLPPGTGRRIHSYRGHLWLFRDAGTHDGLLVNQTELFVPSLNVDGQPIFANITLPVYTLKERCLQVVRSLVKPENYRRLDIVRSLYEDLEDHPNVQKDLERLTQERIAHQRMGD
- Assay Details: Binding affinity to VHL/Elongin C/Elogin B (unknown origin) assessed as dissociation constant at 20 uM by ITC analysis
- Assay type: protein-complex assay
Metric: Kd (nM)

(P) Cc1ncsc1-c1ccc(CNC(=O)[C@@H]2C[C@@H](O)CN2C(=O)[C@@H](NC(=O)C2(F)CC2)C(C)(C)SC[C@H]2CC[C@H](CN3CCOCC3)CC2)cc1
(Q) Cc1ncsc1-c1ccc(CNC(=O)[C@@H]2C[C@@H](O)CN2C(=O)[C@@H](NC(=O)C2(F)CC2)C(C)(C)SC[C@H]2CC[C@@H](CN3CCOCC3)CC2)cc1
Data request: // compare: P vs Q , metric Kd, want the smaller Reply with the label of the item you choose.
Data returned: Q
